test system: aqueous kinetic solubility, PBS pH 7.4, LC-UV/MS; assay: qHTS for Activators of Human alpha-Glucosidase as a Potential Chaperone Treatment of Pompe Disease: Aqueous Solubility; settings: active compounds read high
endpoint-label: solubility

Looking for the measured solubility of CCCN1CNc2c(c(=O)[nH]c(=S)n2Cc2ccc(OC)c(OC)c2)C1 , can you help?
289 µM

Values were extracted from PubChem BioAssay AID602237.
